Test: In vivo pharmacokinetic study in rat plasma
Design: species or system Sprague‐Dawley rats
Conditions: male, Sprague-Dawley CD; rat plasma, IV bolus 5 mg kg^−1
MEASUREMENT_LABEL: clearance (mL/min/kg)
Dear colleague, please return just the value in mL/min/kg, with no unit written.

Noted for "COc1ccc(Br)c(N(C)CCNC(C)=O)c1" : its clearance reads 76.4

====

Assay: Thermodynamic solubility, shake flask method
Assay type: physicochemical
Settings: buffer pH 1.0, simulated gastric fluid, thermodynamic from solid, pH 1.0 buffer, room temperature overnight, mean±SD, triplicate, read-out: Solubility pH 1.0
MEASUREMENT_LABEL: solubility (µg/mL)
Dear colleague, please return just the value in µg/mL, with no unit written.

These recorded examples may help you get a feel for the data.
COc1cccc(N(CCNC(C)=O)c2ccsc2)c1    162
CC(=O)NCCN(c1ccc(F)cc1)c1cccc(C(F)F)c1    54.9
COc1cccc(N(CCNC(C)=O)c2ccccc2)c1 [Compound 2, reference compound]    125

The record that follows has no solubility shown yet.
Noted for "CCCNC(=O)NCCN(c1ccccc1)c1cccc(OC)c1" : its solubility reads 17.7

====

Experiment: Metabolic stability in human liver microsomes
Format: in vitro ADME
Conditions: human liver microsomes 1 mg protein/mL, 5 μM compound, 37 °C; mean±SD
MEASUREMENT_LABEL: CLi Human LM (intrinsic clearance) (μL min^−1 mg prot^−1)
Dear colleague, please return just the value in μL min^−1 mg prot^−1, with no unit written.

These recorded examples may help you get a feel for the data.
COc1ccc(Br)c(N(C)CCNC(C)=O)c1    8.9
COc1cccc(N(CCNC(C)=O)c2cccc(O)c2)c1    10.5
COc1cccc(N(CCNC(N)=O)c2ccccc2)c1    9.1
CC(=O)NCCN(c1ccc(F)cc1)c1cccc(Br)c1 [Compound 3, reference compound]    9.7
CCCNC(=O)NCCN(c1ccccc1)c1cccc(OC)c1    95.7

Noted for "CCNC(=O)NCCN(c1ccccc1)c1cccc(OC)c1" : its CLi Human LM (intrinsic clearance) reads 45.1

Noted for "COc1cccc(N(CCNC(C)=O)c2ccsc2)c1" : its CLi Human LM (intrinsic clearance) reads 17.5

Noted for "COc1cccc(N(CCNC(C)=O)CCc2ccccc2)c1" : its CLi Human LM (intrinsic clearance) reads 96.7

Noted for "COc1cccc(N(CCNC(C)=O)c2cccc(CO)c2)c1" : its CLi Human LM (intrinsic clearance) reads 10.8

Noted for COc1cccc(N(CCNC(C)=O)c2ccccc2)c1 [Compound 2, reference compound] : its CLi Human LM (intrinsic clearance) reads 17

Noted for "COc1ccc(-c2ccccc2)c(N(C)CCNC(C)=O)c1" : its CLi Human LM (intrinsic clearance) reads 61.9

Noted for "CC(=O)NCCN(c1ccc(F)cc1)c1cccc(C(F)F)c1" : its CLi Human LM (intrinsic clearance) reads 12.8

====

Biological target: UniProt P48039
Sequence (P48039 whole entry): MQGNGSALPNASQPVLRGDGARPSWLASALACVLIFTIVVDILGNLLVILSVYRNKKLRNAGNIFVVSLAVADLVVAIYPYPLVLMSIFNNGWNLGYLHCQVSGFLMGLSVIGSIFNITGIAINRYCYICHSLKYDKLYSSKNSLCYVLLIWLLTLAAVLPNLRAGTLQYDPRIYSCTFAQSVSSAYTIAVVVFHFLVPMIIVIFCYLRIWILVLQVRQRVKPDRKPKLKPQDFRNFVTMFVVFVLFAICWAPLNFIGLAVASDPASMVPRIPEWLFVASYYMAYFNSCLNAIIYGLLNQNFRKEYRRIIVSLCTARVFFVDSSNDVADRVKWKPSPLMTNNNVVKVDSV
Assay: Radioligand binding, 2-[125I]iodomelatonin competition at MT1
Settings: cloned human MT1 in CHO cells; from IC50 by Cheng-Prusoff; mean±SD of three determinations; read-out: MT1 K i
Consider the following compounds and their measured Ki readings.
Dear colleague, please return just the value in nM, with no unit written.

CCCNC(=O)NCCN(c1ccccc1)c1cccc(OC)c1 [Compound 6 c]    57
COc1cccc(N(CCNC(C)=O)c2ccsc2)c1 [Compound 11]    0.7
COc1ccc(Br)c(N(C)CCNC(C)=O)c1 [Compound 19]    18
COc1ccc(-c2ccccc2)c(N(C)CCNC(C)=O)c1 [Compound 18]    32
COc1cccc(N(CCNC(C)=O)c2cccc(O)c2)c1 [Compound 15]    53

Noted for CCNC(=O)NCCN(c1ccccc1)c1cccc(OC)c1 [Compound 6 b] : its Ki reads 20

Noted for COc1cccc(N(CCNC(C)=O)c2ccccc2)c1 [Compound 2, reference compound] : its Ki reads 1.6

This collection of values is drawn from paper PMC8518537.
